Data credit: paper PMC9482650

Molecular target: Inadl_9, Q8NI35
Sequence (Q8NI35 1530-1615): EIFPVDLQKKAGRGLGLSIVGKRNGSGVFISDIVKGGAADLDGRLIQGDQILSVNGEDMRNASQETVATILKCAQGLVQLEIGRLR
Experiment: holdup assay
Set-up: key: below the threshold = too weak to quantify, mostly under pKd 3.1 to 4
Settings: plain residues with an end cap or a label only (N-terminal biotin on a linker: ado-ado)
measuredMetric: pKd

Below, 5 binders whose answers are already recorded.
AKPSRISTVV [IQSEC2, Q5JU85]; below the threshold
TSQESEDTYL [TBC1D10A, Q9BXI6]; 3.58
SNAGNTATKA [NOSTRIN, Q8IVI9]; below the threshold
SAKVRTVTSV [RASL11B, Q9BPW5]; below the threshold
VKPQVSESKL [ACOT8, O14734]; below the threshold

Task item: Specify reported pKd for the binder shown: LGRSTPQSEV [DGKH, Q86XP1]
Reply: below the threshold

Task item: Specify reported pKd for the binder shown: TLPRKRMSSI [GPRC6A, Q5T6X5]
Reply: below the threshold
